# Assay details: Psilocin-d10 pharmacokinetics in female beagle dogs, oral gavage and intravenous (bolus)
# Test conditions: female, beagle, dog, plasma, iv, 0.2 mg/kg, Tmax, female dog plasma, single IV bolus 0.20 mg/kg, animal 61F
Measured property: Tmax (min)

> print(dat)
                                   molecule  measured.property  value.unit  recorded.number
1  [2H]C([2H])([2H])N(C([2H])([2H])[2H])C([2H])([2H])C([2H])([2H])c1c[nH]c2cccc(O)c12 [Compound I-3]               Tmax         min               30

----------
# Assay details: Psilocin-d10 pharmacokinetics in female beagle dogs, oral gavage and intravenous (bolus)
# Test conditions: female, beagle, dog, plasma, iv, 0.2 mg/kg, AUC0-t, female dog plasma, single IV bolus 0.20 mg/kg, animal 60F
Measured property: AUC(0-t) (ng·h/mL)

> print(dat)
                                   molecule  value.unit  recorded.number
1  [2H]C([2H])([2H])N(C([2H])([2H])[2H])C([2H])([2H])C([2H])([2H])c1c[nH]c2cccc(O)c12 [Compound I-3]     ng·h/mL               67

These entries and their values trace back to patent US20250213527A1.
